# Test method notes: MTT assay, WI-38 normal human lung fibroblast cells
# Format: cell-based
# Condition label: human, WI-38 normal lung fibroblast cells
# Procedure: Mammary gland (MCF-7;# ATCC HTB-22), colorectal adenocarcinoma (HCT-116; # ATCC CCL-247)), hepatocellular carcinoma (HepG-2; #ATCC HB-8065), and human lung fibroblast (WI-38; # ATCC CCL-75). […] The MTT test was utilized to ascertain the pyrazolone derivatives’ inhibitory effects on cell growth using the aforementioned cell lines. […] The colorimetric test is performed at 630 nm absorbance and recorded using a plate reader (EXL 800, USA)[32]. […]
Measurement label: IC50 at 48 h (µM)
The reply should be a number in µM, with the unit left off.

Bench note: what IC50 at 48 h did CNC(=O)c1cc(Oc2ccc(NC(=O)Nc3ccc(Cl)c(C(F)(F)F)c3)cc2)ccn1 [Sorafenib, reference compound] show?
20.3
